Assay: in vitro release rates of estriol prodrugs from intravaginal rings
Format: physicochemical
Conditions: ring, API loading 5.0 %, core polymer EVA28/2.5 (E3: EVA26/4.0), 37°C, day 1
readout_name: Burst Release d1 (µg)
Numeric answer only, unit µg assumed.

The cases that follow already have their Burst Release d1 on record.
compound: CC(=O)Oc1ccc2c(c1)CCC1C2CC[C@@]2(C)C1C[C@@H](O)[C@@H]2O (stereo partly shown)
readout_name: Burst Release d1
result_unit: µg
endpoint_result: 2891.6
--
compound: C[C@]12CC[C@@H]3c4ccc(O)cc4CC[C@H]3[C@@H]1C[C@@H](O)[C@@H]2O
readout_name: Burst Release d1
result_unit: µg
endpoint_result: 665.1
--
compound: C[C@]12CCC3c4ccc(O)cc4CCC3C1C[C@@H](O)[C@@H]2OC(=O)C1CC1 (stereo partly shown)
readout_name: Burst Release d1
result_unit: µg
endpoint_result: 15521.1

Note: attention shifts to another entry.
Ask | # return recorded Burst Release d1 for entry C[C@]12CCC3c4ccc(OC(=O)C5CC5)cc4CCC3C1C[C@@H](O)[C@@H]2O (stereo partly shown)
Reply | 4301.1
